TARGET_ENTITY: Hypoxia-inducible factor 1-alpha (Homo sapiens) (UniProt Q16665)
Sequence (Q16665 whole entry, looked up): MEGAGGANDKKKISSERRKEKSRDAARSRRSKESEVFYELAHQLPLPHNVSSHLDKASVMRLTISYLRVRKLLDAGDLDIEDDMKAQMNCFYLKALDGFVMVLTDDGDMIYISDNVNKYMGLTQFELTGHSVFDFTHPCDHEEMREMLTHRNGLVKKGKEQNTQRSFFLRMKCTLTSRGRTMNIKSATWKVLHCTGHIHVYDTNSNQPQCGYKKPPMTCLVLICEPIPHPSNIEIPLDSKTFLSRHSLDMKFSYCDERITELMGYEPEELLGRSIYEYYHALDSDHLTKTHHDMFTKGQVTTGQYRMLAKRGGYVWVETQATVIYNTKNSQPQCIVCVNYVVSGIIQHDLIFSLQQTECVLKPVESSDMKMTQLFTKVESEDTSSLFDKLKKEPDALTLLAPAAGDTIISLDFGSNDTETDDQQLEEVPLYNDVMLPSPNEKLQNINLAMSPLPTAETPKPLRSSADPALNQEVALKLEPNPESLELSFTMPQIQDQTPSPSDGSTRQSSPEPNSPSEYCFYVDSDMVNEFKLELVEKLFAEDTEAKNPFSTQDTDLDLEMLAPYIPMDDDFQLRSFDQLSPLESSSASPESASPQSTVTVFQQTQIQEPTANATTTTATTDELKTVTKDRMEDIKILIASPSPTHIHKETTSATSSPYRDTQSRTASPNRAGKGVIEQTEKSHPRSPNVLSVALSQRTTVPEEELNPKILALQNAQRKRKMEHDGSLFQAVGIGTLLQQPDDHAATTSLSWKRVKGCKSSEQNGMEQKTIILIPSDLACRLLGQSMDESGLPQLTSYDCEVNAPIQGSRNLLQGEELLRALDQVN
ASSAY_DETAILS: Inhibition of HIF-1alpha in human H1299 cells at 100 nM after 72 hrs subsequently incubated for 12 hrs under hypoxic conditions by Western blot assay relative to control
Format: cell-based
MEASUREMENT_CONTEXT: values are per cent of control
METRIC_NAME: response, % of control (%)

Past entries and their recorded results:
Q: So what does the record say about response, % of control for COc1ccc(C(C)(C)C(OC(N)=O)c2ccc3c(c2OC)C=CC(C)(C)O3)nc1OC (centres undefined) ?
Ans: 108

Q: Fill blank: measured response, % of control of the compound COc1ccc(CC(OC(N)=O)c2ccc3c(c2OC)C=CC(C)(C)O3)nc1OC (centres undefined) is ____.
Ans: 75

Q: Return reported response, % of control; argument: COc1ccc(CC(OC(=O)C2CC2)c2ccc3c(c2OC)C=CC(C)(C)O3)c(F)c1OC (centres undefined)
Ans: 70.3

Q: Need response, % of control, item COc1ccc([C@H](O)[C@@H](O)c2ccc3c(c2OC)C=CC(C)(C)O3)c(F)c1OC (relative stereo)
Ans: 68.1

Q: Name the recorded response, % of control for "COc1ccc([C@H](C)C(=O)c2ccc3c(c2OC)C=CC(C)(C)O3)nc1OC" .
Ans: 44.2

[a] CCC(=O)OC(c1ccc2c(c1OC)C=CC(C)(C)O2)C(C)(C)c1ccc(OC)c(OC)c1F (centres undefined)
[b] COc1ccc(C(C)C(OC(=O)C2CC2)c2ccc3c(c2OC)C=CC(C)(C)O3)c(F)c1OC (centres undefined)
Q: // which entry reports the smaller response, % of control, a or b ? Reply with the label of the item you choose.
Ans: b
